FYI, the data here is from PubChem BioAssay AID1963979.

Test system: 361931-004-R-J1-PDC multicell spheroid viability;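 note: spheroids exposed to agents for seven days before readout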
assay.procedure: Anticancer human tumor 361931-004-R-J1-PDC patient-derived colon adenocarcinoma cell line growth inhibition [PI3K]; active = viability on the fitted dose curve at most 10% of control; inactive = the rest
condition.parameters: compound 10 µM
Labels: 1 = active, 0 = inactive

> print(dat)
                                    molecule                                    target  label.class
 1  C=CC(=O)N1CCN(c2nc(=O)n(-c3c(C)ccnc3C(C)C)c3nc(-c4c(O)cccc4F)c(F)cc23)C(C)C1 (configuration not stated)  361931-004-R-J1-PDC multicell spheroid viability            0
 2  CC1(C)CCC(CN2CCN(c3ccc(C(=O)NS(=O)(=O)c4ccc(NCC5CCOCC5)c([N+](=O)[O-])c4)c(Oc4cnc5[nH]ccc5c4)c3)CC2)=C(c2ccc(Cl)cc2)C1  361931-004-R-J1-PDC multicell spheroid viability            1
 3  C[C@@H](NC(=O)c1ncnc(N)c1Cl)c1ncc(C(=O)Nc2cc(C(F)(F)F)c(Cl)cn2)s1  361931-004-R-J1-PDC multicell spheroid viability            0
 4  CC(Nc1ncnc2nc[nH]c12)c1cc2cccc(Cl)c2c(=O)n1-c1ccccc1 (configuration not stated)  361931-004-R-J1-PDC multicell spheroid viability            0
 5  CC(C)NCC(C(=O)N1CCN(c2ncnc3c2C(C)CC3O)CC1)c1ccc(Cl)cc1 (configuration not stated)  361931-004-R-J1-PDC multicell spheroid viability            0
 6  CCCS(=O)(=O)Nc1ccc(F)c(C(=O)c2c[nH]c3ncc(-c4ccc(Cl)cc4)cc23)c1F  361931-004-R-J1-PDC multicell spheroid viability            1
 7  Cn1ncc(Cl)c1-c1cc(C(=O)NC(CN)Cc2cccc(F)c2)sc1Cl (configuration not stated)  361931-004-R-J1-PDC multicell spheroid viability            0
 8  Cn1nccc1Nc1nccc(-c2ccn(C(CO)c3ccc(Cl)c(F)c3)c(=O)c2)n1 (configuration not stated)  361931-004-R-J1-PDC multicell spheroid viability            0
 9  CNC(=O)c1ccc(N2C(=S)N(c3ccc(C#N)c(C(F)(F)F)c3)C(=O)C2(C)C)cc1F  361931-004-R-J1-PDC multicell spheroid viability            0
10  Cc1nc(NC(=O)N2CCCC2C(N)=O)sc1-c1ccnc(C(C)(C)C(F)(F)F)c1 (configuration not stated)  361931-004-R-J1-PDC multicell spheroid viability            0
11  CC(Cn1ccc(-c2ccc(C#N)c(Cl)c2)n1)NC(=O)c1cc(C(C)O)[nH]n1 (configuration not stated)  361931-004-R-J1-PDC multicell spheroid viability            0
